target: GMP-140 receptors on the surface of leukocytes (human); assay: neutrophil adhesion to GMP-140 coated wells, peptide preincubated with neutrophils, myeloperoxidase read-out
No end group written: not given here. *: point of attachment. Fmoc = O=C(OCC1c2ccccc2-c2ccccc21)*
assayMetric: percent inhibition of neutrophil binding to GMP-140 at 1.0 mM peptide (%)

Reference set, count: 3
{"binder": "RKNNKTWTWV […]", "u": "%", "valueObserved": 35}
{"binder": "RKNNKTWTWVGTKKALTNEC-NH2", "u": "%", "valueObserved": 47}
{"binder": "RENNKTWTWV-NH2", "u": "%", "valueObserved": 96}

(I) RKNNGTWTWV-NH2
(II) RKNNKTWT-NH2 [RKNNKTWT-NH2]
Task: Lab note: check whether I or II has the lower measured percent inhibition of neutrophil binding to GMP-140 at 1.0 mM peptide. Reply briefly: the label of your chosen item.
Output: II
(II: 34%, I: 99%)

(P) CRKNNKTWTWV-NH2
(Q) KWKWNRTNVT-NH2 […-NH2 (control peptide)]
Task: Lab note: check whether P or Q has the lower measured percent inhibition of neutrophil binding to GMP-140 at 1.0 mM peptide. Reply briefly: the label of your chosen item.
Output: Q
(Q: 0%, P: 105%)

(P) Fmoc-NNKTW-NH2 (SMILES C[C@@H](O)[C@H](NC(=O)[C@H](CCCCN)NC(=O)[C@H](CC(N)=O)NC(=O)[C@H](CC(N)=O)NC(=O)OCC1c2ccccc2-c2ccccc21)C(=O)N[C@@H](Cc1c[nH]c2ccccc12)C(N)=O) [FMOC-NNKTW-NH2]
(Q) RKVNNVW-NH2 [RKVNNVW-NH2]
Task: Lab note: check whether P or Q has the lower measured percent inhibition of neutrophil binding to GMP-140 at 1.0 mM peptide. Reply briefly: the label of your chosen item.
Output: Q
